Experiment: Permeability across primary rat brain endothelial cell-based triple co-culture BBB model (EPA)
Experimental Conditions: Wistar
Property Measured: Papp A→B (×10⁻⁶ cm/s)

> print(dat)
                                   compound  property.measured   unit.spec  relation.qualifier  meas.value
1  O=C(O)c1ccccc1O [Salicylic acid, salicylic acid]           Papp A→B  ×10⁻⁶ cm/s                   =        4.78
2  CO[C@H]1[C@H](O)[C@@H](CO)OC(O)[C@@H]1O (stereo partly drawn) [Glucopyranose, 3-O-methyl-D-glucopyranose]           Papp A→B  ×10⁻⁶ cm/s                   <        65.7
3  N[C@@H](Cc1ccc(O)c(O)c1)C(=O)O [L-DOPA, 3,4-dihydroxy-L-phenylalanine]           Papp A→B  ×10⁻⁶ cm/s                   =          73
4  CC[C@H](C)C(=O)O[C@H]1C[C@H](O)C=C2C=C[C@H](C)[C@H](CC[C@@H](O)C[C@@H](O)CC(=O)O)[C@H]21 [Pravastatin, pravastatin]           Papp A→B  ×10⁻⁶ cm/s                   =        7.61
5  CCCC(CCC)C(=O)O [Valproic acid, valproic acid]           Papp A→B  ×10⁻⁶ cm/s                   =        39.4
6  CCCN(CCC)S(=O)(=O)c1ccc(C(=O)O)cc1 [Probenecid, probenecid]           Papp A→B  ×10⁻⁶ cm/s                   =          19
7  NCC(CC(=O)O)c1ccc(Cl)cc1 (centres unmarked) [Baclofen, baclofen]           Papp A→B  ×10⁻⁶ cm/s                   =        16.3
8  CC(C)c1nc(N(C)S(C)(=O)=O)nc(-c2ccc(F)cc2)c1/C=C/[C@@H](O)C[C@@H](O)CC(=O)O [Rosuvastatin, rosuvastatin]           Papp A→B  ×10⁻⁶ cm/s                   =        11.3

---

Experiment: Permeability across GP8 brain endothelial cell line
Format: in vitro ADME
Experimental Conditions: rat, fluorescein 10 μg/ml, mean ± SD
Property Measured: Papp at 30 min, 10 µg/ml (×10⁻⁶ cm/s)

> print(dat)
                              line.notation   unit.spec  meas.value
1  O=C1OC2(c3ccc(O)cc3Oc3cc(O)ccc32)c2ccccc21  ×10⁻⁶ cm/s        39.8

---

Experiment: Permeability across MDCK cell layers
Format: in vitro ADME, canine
Experimental Conditions: dog, fluorescein 10 μg/ml, mean ± SD
Property Measured: Papp at 30 min, 10 µg/ml (×10⁻⁶ cm/s)

> print(dat)
                                   compound   unit.spec  meas.value
1  O=C1OC2(c3ccc(O)cc3Oc3cc(O)ccc32)c2ccccc21 [Fluorescein, fluorescein]  ×10⁻⁶ cm/s         2.8

---

Experiment: in vitro
Experimental Conditions: human, Caco-2
Property Measured: Papp A→B

> print(dat)
                                   compound         meas.value
1  NCC1(CC(=O)O)CCCCC1 [Gabapentin, gabapentin]  < 0.88 ×10⁻⁶ cm/s

---

Experiment: Permeability across Caco-2 epithelial cell layers
Type: in vitro ADME
Experimental Conditions: human, CaCo2, fluorescein 10 μg/ml, mean ± SD
Property Measured: Papp at 30 min, 10 µg/ml

> print(dat)
                              line.notation  meas.value
1  O=C1OC2(c3ccc(O)cc3Oc3cc(O)ccc32)c2ccccc21     15 nm/s

---

Experiment: in vitro
Experimental Conditions: human, Caco-2
Property Measured: efflux ratio

> print(dat)
         line.notation  property.measured  meas.value
1  NCC1(CC(=O)O)CCCCC1       efflux ratio      > 0.27

---

In this section, each of the molecules is paired with its reported Papp A→B.
Experiment: Permeability across vinblastine-selected VB-Caco-2 cell layers
Experimental Conditions: human
Property Measured: Papp A→B (×10⁻⁶ cm/s)

> print(dat)
                                   molecule  property.measured   unit.spec  meas.value
1  CC[C@H](C)C(=O)O[C@H]1C[C@H](O)C=C2C=C[C@H](C)[C@H](CC[C@@H](O)C[C@@H](O)CC(=O)O)[C@H]21 [Pravastatin, pravastatin]           Papp A→B  ×10⁻⁶ cm/s        0.19
2  CCCN(CCC)S(=O)(=O)c1ccc(C(=O)O)cc1 [Probenecid, probenecid]           Papp A→B  ×10⁻⁶ cm/s        33.4
3  CC(C)c1nc(N(C)S(C)(=O)=O)nc(-c2ccc(F)cc2)c1/C=C/[C@@H](O)C[C@@H](O)CC(=O)O [Rosuvastatin, rosuvastatin]           Papp A→B  ×10⁻⁶ cm/s        0.38
4  CO[C@H]1[C@H](O)[C@@H](CO)OC(O)[C@@H]1O (stereo partly drawn) [Glucopyranose, 3-O-methyl-D-glucopyranose]           Papp A→B  ×10⁻⁶ cm/s        17.2
5  CCCC(CCC)C(=O)O [Valproic acid, valproic acid]           Papp A→B  ×10⁻⁶ cm/s        42.2
6  O=C(O)c1ccccc1O [Salicylic acid, salicylic acid]           Papp A→B  ×10⁻⁶ cm/s         7.6
7  NCC(CC(=O)O)c1ccc(Cl)cc1 (stereo not shown) [Baclofen, baclofen]           Papp A→B  ×10⁻⁶ cm/s        0.31

---

Experiment: Permeability across RBE4 brain endothelial cell line
Assay type: in vitro ADME
Experimental Conditions: rat, fluorescein 10 μg/ml, mean ± SD
Property Measured: Papp at 30 min, 10 µg/ml

> print(dat)
                                   compound         property.measured       meas.value
1  O=C1OC2(c3ccc(O)cc3Oc3cc(O)ccc32)c2ccccc21 [Fluorescein, fluorescein]  Papp at 30 min, 10 µg/ml  27.4 ×10⁻⁶ cm/s

---

Experiment: Permeability across primary rat brain endothelial cell-based triple co-culture BBB model (EPA)
Experimental Conditions: Wistar
Property Measured: Papp at 30 min, 10 µg/ml (×10⁻⁶ cm/s)

> print(dat)
                                   molecule   unit.spec  meas.value
1  O=C1OC2(c3ccc(O)cc3Oc3cc(O)ccc32)c2ccccc21 [Fluorescein, fluorescein]  ×10⁻⁶ cm/s         2.1

---

Experiment: Permeability across primary rat brain endothelial cell-based triple co-culture BBB model (EPA)
Property Measured: efflux ratio at 10 μM

> print(dat)
                                   molecule      property.measured  meas.value
1  N[C@@H](Cc1ccc(O)c(O)c1)C(=O)O [L-DOPA, 3,4-dihydroxy-L-phenylalanine]  efflux ratio at 10 μM         0.4

---

Experiment: in vitro
Experimental Conditions: rat
Property Measured: efflux ratio

> print(dat)
                                   compound  property.measured  meas.value
1  NCC1(CC(=O)O)CCCCC1 [Gabapentin, gabapentin]       efflux ratio        0.92

---

Experiment: in vitro
Experimental Conditions: Wistar, rat
Property Measured: Papp A→B (×10⁻⁶ cm/s)

> print(dat)
         line.notation  property.measured  meas.value
1  NCC1(CC(=O)O)CCCCC1           Papp A→B        2.98
